TGT: hCXCR2 (Homo sapiens, UniProt P25025)
Sequence (P25025 1-360): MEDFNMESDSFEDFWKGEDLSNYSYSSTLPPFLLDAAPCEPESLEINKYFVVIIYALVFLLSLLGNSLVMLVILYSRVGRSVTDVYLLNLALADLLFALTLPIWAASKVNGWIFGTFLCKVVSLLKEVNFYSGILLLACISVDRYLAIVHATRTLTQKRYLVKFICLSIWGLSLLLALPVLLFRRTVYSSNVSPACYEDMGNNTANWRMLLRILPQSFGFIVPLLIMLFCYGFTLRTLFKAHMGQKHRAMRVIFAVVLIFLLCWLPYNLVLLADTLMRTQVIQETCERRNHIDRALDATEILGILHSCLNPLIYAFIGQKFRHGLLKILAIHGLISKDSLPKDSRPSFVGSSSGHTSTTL
OBSERVABLE: IC50 (nM)
Give bare numbers, in nM.

Query block: Endpoint output: IC50 of O=C(c1cccc(Nc2c(Nc3ccccc3)c(=O)c2=O)c1O)N1CCOCC1 [Example 45] . Value?
Result block: 10
